Recorded % Response, one value per entry.
biological target: ATX (Homo sapiens, UniProt Q13822); construct: conditioned serum-free medium (CCM) from MDA-MB-435 cells as the source of ATX; endogenous in cells; host or cells: MDA-MB-435 cells (about 10x concentrated conditioned serum-free medium); assay: ATX inhibition assay (FS-3 substrate); assay type: biochemical; conditions: preliminary screen; FS-3 hydrolysis at one hour, normalized to vehicle control, mean±S.D.; same values given at 10 μM in Table 5
measurementType: % Response (%)

[[record]]
compound = "Nc1ccc(S(=O)(=O)c2ccc(NCNC(CSSCC(NCNc3ccc(S(=O)(=O)c4ccc(N)cc4)cc3)C(=O)O)C(=O)O)cc2)cc1 (stereo not shown) [compound 39858]"
unittag = "%"
value = 93

[[record]]
compound = "O=C(CC(C(=O)O)S(=O)(=O)O)Nc1ccc(S(=O)(=O)c2ccc(NC(=O)CC(C(=O)O)S(=O)(=O)O)cc2)cc1.[Na+] (stereo not shown) [compound 2460]"
unittag = "%"
value = 99

[[record]]
compound = "COc1ccc(/C=N/NC(=O)C(=O)N/N=C/c2ccc(OC)c(S(=O)(=O)O)c2)cc1S(=O)(=O)O [compound 56207]"
unittag = "%"
value = 100

[[record]]
compound = "COc1cc(-c2ccc(N=Nc3c(S(=O)(=O)O)cc4cc(S(=O)(=O)O)c(N=Nc5ccc([N+](=O)[O-])cc5)c(N)c4c3O)c(OC)c2)ccc1N=Nc1ccc(N)cc1C.[Na+] [compound 79737]"
unittag = "%"
value = 62

[[record]]
compound = "COc1ccccc1N=Nc1c(S(=O)(=O)O)cc2cc(S(=O)(=O)O)c(N=Nc3ccc([N+](=O)[O-])cc3)c(N)c2c1O.[Na+] [compound 65829]"
unittag = "%"
value = 71

[[record]]
compound = "Cc1ccc(Nc2cccc3c2C(=O)c2cccc(Nc4ccc(C)c(S(=O)(=O)O)c4)c2C3=O)cc1S(=O)(=O)O [compound 7804]"
unittag = "%"
value = 96

[[record]]
compound = "Cc1cc(S(=O)(=O)O)ccc1N=c1ccc2c(-c3ccccc3C(=O)[O-])c3ccc(Nc4ccccc4C)cc3oc-2c1.[Na+] [compound 11246]"
unittag = "%"
value = 42

[[record]]
compound = "O=C(Nc1ccc2c(O)c(N=Nc3ccccc3)c(S(=O)(=O)[O-])cc2c1)Nc1ccc2c(O)c(N=Nc3ccccc3)c(S(=O)(=O)[O-])cc2c1.[Na+].[Na+] [compound 47749]"
unittag = "%"
value = 103

[[record]]
compound = "NC(=N\\N=C/c1ccc(O)c(S(=O)(=O)O)c1)/C(N)=N\\N=C/c1ccc(O)c(S(=O)(=O)O)c1.[Na+] [compound 47470]"
unittag = "%"
value = 90

[[record]]
compound = "O=C(O)c1ccccc1-c1c2ccc(=Nc3ccccc3)cc-2oc2cc(Nc3ccc(S(=O)(=O)O)cc3)ccc12.[Na+] [compound 11242]"
unittag = "%"
value = 73

[[record]]
compound = "Cc1ccc(Nc2ccc(Nc3ccc(C)cc3S(=O)(=O)[O-])c3c2C(=O)c2ccccc2C3=O)c(S(=O)(=O)[O-])c1.[Na+].[Na+] [compound 7795]"
unittag = "%"
value = 99

[[record]]
compound = "O=C(/C=C\\c1ccc(NCc2ccc(C(=O)O)cc2)cc1)CCl [compound 106024]"
unittag = "%"
value = 62

[[record]]
compound = "O=C(O)c1ccccc1N=N/C(=N\\Nc1cc(S(=O)(=O)O)ccc1O)c1ccccc1 [compound 5359]"
unittag = "%"
value = 94


---

Recorded % Response, one value per entry.
Target: ATX (Homo sapiens, UniProt Q13822)
Construct: conditioned serum-free medium (CCM) from MDA-MB-435 cells as the source of ATX; endogenous in cells; host or cells: MDA-MB-435 cells (about 10x concentrated conditioned serum-free medium)
Assay: ATX inhibition assay (FS-3 substrate)
Assay type: biochemical
Conditions: preliminary screen; FS-3 hydrolysis at one hour, normalized to vehicle control, mean±S.D.; same values given at 10 μM in Table 5
Method: ATX inhibition was assayed using the substrate FS-3 (Echelon Biosciences, Inc., Salt Lake City, Utah, USA). […] All assays were performed in 96-well plates with data read at 1 minute intervals by a Synergy2 system (BioTek, Winooski, Vt.). The fluorescence produced upon the hydrolysis of FS-3 was monitored using an excitation wavelength of 485 nm and an emission wavelength of 528 nm at 37° C. […] All readings were normalized to vehicle control after subtraction of fluorescence in the absence of CCM. […]
measurementType: % Response

[[record]]
molecule = "Nc1c(N=Nc2ccc([N+](=O)[O-])cc2)c(S(=O)(=O)O)cc2cc(S(=O)(=O)O)c(N=Nc3ccccc3)c(O)c12"
value = "110 ± 5.7%"

[[record]]
molecule = "NS(=O)(=O)c1ccc(N=NNc2ccc(C(=O)O)cc2)cc1.[Na+]"
value = "101 ± 9.0%"

[[record]]
molecule = "O=S(=O)(O)c1cc(O)c2ccc(Nc3ccc4c(O)cc(S(=O)(=O)O)cc4c3)cc2c1 [compound 37203]"
value = "92 ± 9.1%"

[[record]]
molecule = "CCOc1cc(-c2ccc(N=Nc3c(S(=O)(=O)O)cc4ccc(N)cc4c3O)cc2)ccc1N=Nc1c(S(=O)(=O)O)cc2ccc(N)cc2c1O.[Na+]"
value = "61 ± 4.3%"

[[record]]
molecule = "O=C(Nc1ccc(C(=O)Nc2ccc3c(O)cc(S(=O)(=O)O)cc3c2)cc1)c1ccccc1.[Na+]"
value = "79 ± 3.7%"

[[record]]
molecule = "COc1cc(N=Nc2c(S(=O)(=O)O)cc3cc(NC(=O)Nc4ccc5c(O)c(N=Nc6ccc7cc(S(=O)(=O)O)ccc7c6)c(S(=O)(=O)O)cc5c4)ccc3c2O)c(C)cc1N"
value = "30 ± 4.9%"

[[record]]
molecule = "O=S(=O)(O)c1cc(O)c2ccc(Nc3ccc4c(O)cc(S(=O)(=O)O)cc4c3)cc2c1 [compound 1698]"
value = "89 ± 5.1%"


---

biological target: ATX (Homo sapiens); construct: conditioned serum-free medium (CCM) from MDA-MB-435 cells as the source of ATX; endogenous in cells; host or cells: MDA-MB-435 cells (about 10x concentrated conditioned serum-free medium); test: ATX inhibition assay (FS-3 substrate); type: biochemical; conditions: 10 μM compound; FS-3 substrate
measurementType: % ATX Acitivity (10 μM) (%)

[[record]]
molecule = "O=C1C(Cl)=C(Nc2ccc(C(=O)Nc3ccc4cc(S(=O)(=O)O)cc(S(=O)(=O)O)c4c3)cc2)C(=O)C(Cl)=C1Nc1ccc(C(=O)Nc2ccc3cc(S(=O)(=O)O)cc(S(=O)(=O)O)c3c2)cc1 [NSC 12859]"
measurementtype = "% ATX Acitivity (10 μM)"
value = 27

[[record]]
molecule = "Nc1ccc2cc(S(=O)(=O)O)c(/N=N/c3ccc(-c4ccc(/N=N/c5c(S(=O)(=O)O)cc6cc(S(=O)(=O)O)cc(N)c6c5O)cc4)cc3)c(O)c2c1 [NSC 75779]"
measurementtype = "% ATX Acitivity (10 μM)"
value = 20

[[record]]
molecule = "CC(C)(C)OC(=O)NC(CC(Cc1ccccc1)C(=O)O)C(=O)NC(CC(Cc1ccccc1)C(=O)O)C(=O)NC(CC(Cc1ccccc1)C(=O)O)C(=O)NCC(=O)Oc1ccc([N+](=O)[O-])cc1 (centres unmarked) [NSC 341348]"
measurementtype = "% ATX Acitivity (10 μM)"
value = 43

[[record]]
molecule = "Cc1cc(C(O)(c2ccc(Nc3ccccc3)cc2)c2ccc(Nc3ccc(S(=O)(=O)O)cc3)cc2)ccc1N (centres unmarked) [NSC 5014]"
measurementtype = "% ATX Acitivity (10 μM)"
value = 39

[[record]]
molecule = "Nc1ccc(/N=N/c2ccc(-c3ccc(/N=N/c4c(S(=O)(=O)O)cc5cc(S(=O)(=O)O)c(/N=N/c6ccc([N+](=O)[O-])cc6)c(N)c5c4O)cc3)cc2)c2ccc(S(=O)(=O)O)cc12 [NSC 77520]"
measurementtype = "% ATX Acitivity (10 μM)"
value = 32


---

Molecular target: ATX (Homo sapiens, UniProt Q13822)
Construct: conditioned serum-free medium (CCM) from MDA-MB-435 cells as the source of ATX; endogenous in cells; host or cells: MDA-MB-435 cells (about 10x concentrated conditioned serum-free medium)
Assay: ATX inhibition assay (FS-3 substrate)
Assay type: biochemical
Conditions: Calculated IC50 data for the 30 active compounds; FS-3 substrate
Protocol: ATX inhibition was assayed using the substrate FS-3 (Echelon Biosciences, Inc., Salt Lake City, Utah, USA). […] All assays were performed in 96-well plates with data read at 1 minute intervals by a Synergy2 system (BioTek, Winooski, Vt.). The fluorescence produced upon the hydrolysis of FS-3 was monitored using an excitation wavelength of 485 nm and an emission wavelength of 528 nm at 37° C. […] All readings were normalized to vehicle control after subtraction of fluorescence in the absence of CCM. […]
pIC50: −log10 of the molar value.
If the reported pIC50 equals or exceeds 5, assign true (1). If not, assign false (0).

[[record]]
compound = "O=C(Nc1ccc2c(O)c(N=Nc3ccccc3)c(S(=O)(=O)O)cc2c1)Nc1ccc2c(O)c(N=Nc3ccc4cc(S(=O)(=O)O)ccc4c3)c(S(=O)(=O)O)cc2c1.[H-].[Na+]"
labelclass = "false (0)"

[[record]]
compound = "COc1cc(N=Nc2cc(S(=O)(=O)[O-])cc3cc(S(=O)(=O)[O-])cc(O)c23)c(C)cc1N=Nc1c(S(=O)(=O)[O-])cc2cc(Nc3ccccc3)ccc2c1O.[Na+].[Na+].[Na+]"
labelclass = "false (0)"

[[record]]
compound = "CC(C)(C)OC(=O)NC(CC(Cc1ccccc1)C(=O)O)C(=O)NC(CC(Cc1ccccc1)C(=O)O)C(=O)NC(CC(Cc1ccccc1)C(=O)O)C(=O)NCC(=O)Oc1ccc([N+](=O)[O-])cc1 (centres unmarked)"
labelclass = "true (1)"

[[record]]
compound = "Nc1ccc2cc(S(=O)(=O)O)cc(O)c2c1N=Nc1ccc(-c2ccc(N=Nc3c(S(=O)(=O)O)cc4cc(S(=O)(=O)O)c(N=Nc5ccc([N+](=O)[O-])cc5)c(N)c4c3O)cc2)cc1"
labelclass = "false (0)"

[[record]]
compound = "Nc1c(N=Nc2ccc([N+](=O)[O-])cc2)c(S(=O)(=O)O)cc2cc(S(=O)(=O)O)c(N=Nc3ccc(-c4ccc(N=Nc5ccc(O)cc5)cc4)cc3)c(O)c12.[Na+]"
labelclass = "true (1)"

[[record]]
compound = "Nc1ccc(N=Nc2ccc(-c3ccc(N=Nc4c(S(=O)(=O)O)cc5cc(S(=O)(=O)O)c(N=Nc6ccc([N+](=O)[O-])cc6)c(N)c5c4O)cc3)cc2)c2cc(S(=O)(=O)O)ccc12.Nc1ccc(N=Nc2ccc(-c3ccc(N=Nc4c(S(=O)(=O)O)cc5cc(S(=O)(=O)O)c(N=Nc6ccc([N+](=O)[O-])cc6)c(N)c5c4O)cc3)cc2)c2ccc(S(=O)(=O)O)cc12"
labelclass = "true (1)"

[[record]]
compound = "Nc1ccc(N=Nc2ccc(-c3ccc(N=Nc4c(S(=O)(=O)O)cc5cc(S(=O)(=O)O)c(N=Nc6cccc([N+](=O)[O-])c6)c(N)c5c4O)cc3)cc2)c(N)c1.[Na+]"
labelclass = "true (1)"

[[record]]
compound = "Cc1ccc(C)c(N=Nc2c(S(=O)(=O)O)cc3cc(NC(=O)Nc4ccc5c(O)c(N=Nc6ccc7cc(S(=O)(=O)O)ccc7c6)c(S(=O)(=O)O)cc5c4)ccc3c2O)c1.[Na+]"
labelclass = "false (0)"

[[record]]
compound = "Nc1c(N=Nc2ccc([N+](=O)[O-])cc2)c(S(=O)(=O)O)cc2cc(S(=O)(=O)O)c(N=Nc3ccc(-c4ccc(N=Nc5c(S(=O)(=O)O)cc6cc(S(=O)(=O)O)c(N=Nc7ccc([N+](=O)[O-])cc7)c(N)c6c5O)cc4)cc3)c(O)c12.[Na+]"
labelclass = "false (0)"

